Sourced from ChEMBL document CHEMBL3421539

METHOD_SUMMARY: Stability of the compound in organic solvent assessed as hydrolysis after 10 mins to 24 hrs by HPLC analysis
Format: physicochemical

[
  {
    "STRUCTURE_AS_SMILES": "COc1cc(C=C2C(=O)N(CC(C)C)C(=O)N(CC(C)C)C2=O)ccc1O",
    "Stability": "Stable"
  },
  {
    "STRUCTURE_AS_SMILES": "CC(C)CN1C(=O)C(=Cc2ccccc2)C(=O)N(CC(C)C)C1=O",
    "Stability": "Stable"
  },
  {
    "STRUCTURE_AS_SMILES": "C=CCN1C(=O)C(=Cc2ccccc2)C(=O)N(CC=C)C1=O",
    "Stability": "Stable"
  },
  {
    "STRUCTURE_AS_SMILES": "C=CCN1C(=O)C(=Cc2ccc(OC)c(OC)c2)C(=O)N(CC=C)C1=O",
    "Stability": "Stable"
  },
  {
    "STRUCTURE_AS_SMILES": "COc1ccc(C=C2C(=O)N(Cc3ccccc3)C(=O)N(Cc3ccccc3)C2=O)cc1O",
    "Stability": "Stable"
  },
  {
    "STRUCTURE_AS_SMILES": "COc1cc(C=C2C(=O)N(Cc3ccccc3)C(=O)N(Cc3ccccc3)C2=O)ccc1O",
    "Stability": "Stable"
  },
  {
    "STRUCTURE_AS_SMILES": "O=C1C(=Cc2ccc(O)c(O)c2)C(=O)N(Cc2ccccc2)C(=O)N1Cc1ccccc1",
    "Stability": "Stable"
  },
  {
    "STRUCTURE_AS_SMILES": "COc1ccc(C=C2C(=O)N(CC(C)C)C(=O)N(CC(C)C)C2=O)cc1OC",
    "Stability": "Stable"
  },
  {
    "STRUCTURE_AS_SMILES": "C=CCN1C(=O)C(=Cc2ccc(OC)c(O)c2)C(=O)N(CC=C)C1=O",
    "Stability": "Stable"
  },
  {
    "STRUCTURE_AS_SMILES": "COc1ccc(C=C2C(=O)N(Cc3ccccc3)C(=O)N(Cc3ccccc3)C2=O)cc1OC",
    "Stability": "Stable"
  },
  {
    "STRUCTURE_AS_SMILES": "C=CCN1C(=O)C(=Cc2ccc(O)c(O)c2)C(=O)N(CC=C)C1=O",
    "Stability": "Stable"
  },
  {
    "STRUCTURE_AS_SMILES": "O=C1C(=Cc2ccc(O)cc2)C(=O)N(Cc2ccccc2)C(=O)N1Cc1ccccc1",
    "Stability": "Stable"
  },
  {
    "STRUCTURE_AS_SMILES": "COc1ccc(C=C2C(=O)N(CC(C)C)C(=O)N(CC(C)C)C2=O)cc1",
    "Stability": "Stable"
  },
  {
    "STRUCTURE_AS_SMILES": "O=C1C(=Cc2ccccc2)C(=O)N(Cc2ccccc2)C(=O)N1Cc1ccccc1",
    "Stability": "Stable"
  },
  {
    "STRUCTURE_AS_SMILES": "CC(C)CN1C(=O)C(=Cc2ccc(O)cc2)C(=O)N(CC(C)C)C1=O",
    "Stability": "Stable"
  },
  {
    "STRUCTURE_AS_SMILES": "C=CCN1C(=O)C(=Cc2ccc(O)c(OC)c2)C(=O)N(CC=C)C1=O",
    "Stability": "Stable"
  },
  {
    "STRUCTURE_AS_SMILES": "COc1ccc(C=C2C(=O)N(Cc3ccccc3)C(=O)N(Cc3ccccc3)C2=O)cc1",
    "Stability": "Stable"
  },
  {
    "STRUCTURE_AS_SMILES": "CC(C)CN1C(=O)C(=Cc2ccc(O)c(O)c2)C(=O)N(CC(C)C)C1=O",
    "Stability": "Stable"
  },
  {
    "STRUCTURE_AS_SMILES": "COc1ccc(C=C2C(=O)N(CC(C)C)C(=O)N(CC(C)C)C2=O)cc1O",
    "Stability": "Stable"
  },
  {
    "STRUCTURE_AS_SMILES": "C=CCN1C(=O)C(=Cc2ccc(O)cc2)C(=O)N(CC=C)C1=O",
    "Stability": "Stable"
  },
  {
    "STRUCTURE_AS_SMILES": "C=CCN1C(=O)C(=Cc2ccc(OC)cc2)C(=O)N(CC=C)C1=O",
    "Stability": "Stable"
  }
]
